species: Rattus norvegicus; experiment: Open TG-GATES - Regimen: Single; format: toxicity, organism-based, Sprague-Dawley; parameters: regimen Single, gender Male, age 6 weeks; conditions: in vivo, po, 0 mg/kg, 6 h, tissue Blood, route gavage, dose level Control
measurement label: Fbg (mg/dL)
Field: numeric (mg/dL). Do not append units.

Looking up CN(C)C(=N)N=C(N)N , I found its Fbg recorded as 261

Reported Fbg for ClC(Cl)(Cl)Cl [CARBON TETRACHLORIDE] was 230.8

So for O=NN(CCCl)C(=O)NC1CCCCC1 , the logged Fbg turned out to be 218.2

GET /value?item= CC(C)N(CCC(C(N)=O)(c1ccccc1)c1ccccn1)C(C)C (stereo not given) [DISOPYRAMIDE] &field=Fbg returns 310.2

Recorded result, CCC1(c2ccccc2)C(=O)NC(=O)NC1=O , Fbg: 227.8

// field: Fbg; key: CC1=C(CC(=O)O)c2cc(F)ccc2/C1=C\c1ccc([S+](C)[O-])cc1 (stereo not given) ; value = 281.8

Record CCc1oc2ccccc2c1C(=O)c1cc(Br)c(O)c(Br)c1 , field Fbg: 230.2

Given item CC[C@H]1[C@@H]2C[C@H]3[C@@H]4N(C)c5ccccc5[C@]45C[C@@H]([C@@H]2[C@H]5O)N3[C@@H]1O , the value recorded as its Fbg is 196.2

Item: OCCOCCN1CCN(C(c2ccccc2)c2ccc(Cl)cc2)CC1 (stereo not given) [HYDROXYZINE] | Fbg: 298.6

Per the records, this compound ( CN(C)CCC=C1c2ccccc2COc2ccccc21 [DOXEPIN] ) has Fbg equal to 265.6

###

species on record: Rattus norvegicus; test: Open TG-GATES - Regimen: Single; format: toxicity, organism-based, Sprague-Dawley; design: regimen Single, gender Male, age 6 weeks; conditions: in vivo, po, 0 mg/kg, 9 h, tissue Plasma, route gavage, dose level Control
measurement label: TP (g/dL)
Field format: number, assumed g/dL, no unit text.

Looking up CN(C)C(=N)N=C(N)N [METFORMIN] , I found its TP recorded as 5.1

Entry under test: CCC1(c2ccccc2)C(=O)NC(=O)NC1=O [PHENOBARBITAL] . Its TP was 5.4

The molecule identified as CC[C@H]1[C@@H]2C[C@H]3[C@@H]4N(C)c5ccccc5[C@]45C[C@@H]([C@@H]2[C@H]5O)N3[C@@H]1O [AJMALINE] registered its TP at 5.2

Data point: ClC(Cl)(Cl)Cl [CARBON TETRACHLORIDE] ; TP = 5.4

TP reading for CC1=C(CC(=O)O)c2cc(F)ccc2/C1=C\c1ccc([S+](C)[O-])cc1 (stereo not given) : 5.3

Consider CN(C)CCC=C1c2ccccc2COc2ccccc21 [DOXEPIN] . Its measured TP is 5.3

So, CC(C)N(CCC(C(N)=O)(c1ccccc1)c1ccccn1)C(C)C (stereo not given) [DISOPYRAMIDE] ? Its TP was 5.4

Lab note: CCc1oc2ccccc2c1C(=O)c1cc(Br)c(O)c(Br)c1 [BENZBROMARONE] gave TP of 5.8

Form: molecule = OCCOCCN1CCN(C(c2ccccc2)c2ccc(Cl)cc2)CC1 (stereo not given) [HYDROXYZINE] ; TP = 5.4

Recorded TP (molecule O=NN(CCCl)C(=O)NC1CCCCC1 [LOMUSTINE] ): 5.6
